# experimentalTarget: PIKfyve (Homo sapiens (Human), UniProt Q9Y2I7)
# Sequence (Q9Y2I7 whole entry): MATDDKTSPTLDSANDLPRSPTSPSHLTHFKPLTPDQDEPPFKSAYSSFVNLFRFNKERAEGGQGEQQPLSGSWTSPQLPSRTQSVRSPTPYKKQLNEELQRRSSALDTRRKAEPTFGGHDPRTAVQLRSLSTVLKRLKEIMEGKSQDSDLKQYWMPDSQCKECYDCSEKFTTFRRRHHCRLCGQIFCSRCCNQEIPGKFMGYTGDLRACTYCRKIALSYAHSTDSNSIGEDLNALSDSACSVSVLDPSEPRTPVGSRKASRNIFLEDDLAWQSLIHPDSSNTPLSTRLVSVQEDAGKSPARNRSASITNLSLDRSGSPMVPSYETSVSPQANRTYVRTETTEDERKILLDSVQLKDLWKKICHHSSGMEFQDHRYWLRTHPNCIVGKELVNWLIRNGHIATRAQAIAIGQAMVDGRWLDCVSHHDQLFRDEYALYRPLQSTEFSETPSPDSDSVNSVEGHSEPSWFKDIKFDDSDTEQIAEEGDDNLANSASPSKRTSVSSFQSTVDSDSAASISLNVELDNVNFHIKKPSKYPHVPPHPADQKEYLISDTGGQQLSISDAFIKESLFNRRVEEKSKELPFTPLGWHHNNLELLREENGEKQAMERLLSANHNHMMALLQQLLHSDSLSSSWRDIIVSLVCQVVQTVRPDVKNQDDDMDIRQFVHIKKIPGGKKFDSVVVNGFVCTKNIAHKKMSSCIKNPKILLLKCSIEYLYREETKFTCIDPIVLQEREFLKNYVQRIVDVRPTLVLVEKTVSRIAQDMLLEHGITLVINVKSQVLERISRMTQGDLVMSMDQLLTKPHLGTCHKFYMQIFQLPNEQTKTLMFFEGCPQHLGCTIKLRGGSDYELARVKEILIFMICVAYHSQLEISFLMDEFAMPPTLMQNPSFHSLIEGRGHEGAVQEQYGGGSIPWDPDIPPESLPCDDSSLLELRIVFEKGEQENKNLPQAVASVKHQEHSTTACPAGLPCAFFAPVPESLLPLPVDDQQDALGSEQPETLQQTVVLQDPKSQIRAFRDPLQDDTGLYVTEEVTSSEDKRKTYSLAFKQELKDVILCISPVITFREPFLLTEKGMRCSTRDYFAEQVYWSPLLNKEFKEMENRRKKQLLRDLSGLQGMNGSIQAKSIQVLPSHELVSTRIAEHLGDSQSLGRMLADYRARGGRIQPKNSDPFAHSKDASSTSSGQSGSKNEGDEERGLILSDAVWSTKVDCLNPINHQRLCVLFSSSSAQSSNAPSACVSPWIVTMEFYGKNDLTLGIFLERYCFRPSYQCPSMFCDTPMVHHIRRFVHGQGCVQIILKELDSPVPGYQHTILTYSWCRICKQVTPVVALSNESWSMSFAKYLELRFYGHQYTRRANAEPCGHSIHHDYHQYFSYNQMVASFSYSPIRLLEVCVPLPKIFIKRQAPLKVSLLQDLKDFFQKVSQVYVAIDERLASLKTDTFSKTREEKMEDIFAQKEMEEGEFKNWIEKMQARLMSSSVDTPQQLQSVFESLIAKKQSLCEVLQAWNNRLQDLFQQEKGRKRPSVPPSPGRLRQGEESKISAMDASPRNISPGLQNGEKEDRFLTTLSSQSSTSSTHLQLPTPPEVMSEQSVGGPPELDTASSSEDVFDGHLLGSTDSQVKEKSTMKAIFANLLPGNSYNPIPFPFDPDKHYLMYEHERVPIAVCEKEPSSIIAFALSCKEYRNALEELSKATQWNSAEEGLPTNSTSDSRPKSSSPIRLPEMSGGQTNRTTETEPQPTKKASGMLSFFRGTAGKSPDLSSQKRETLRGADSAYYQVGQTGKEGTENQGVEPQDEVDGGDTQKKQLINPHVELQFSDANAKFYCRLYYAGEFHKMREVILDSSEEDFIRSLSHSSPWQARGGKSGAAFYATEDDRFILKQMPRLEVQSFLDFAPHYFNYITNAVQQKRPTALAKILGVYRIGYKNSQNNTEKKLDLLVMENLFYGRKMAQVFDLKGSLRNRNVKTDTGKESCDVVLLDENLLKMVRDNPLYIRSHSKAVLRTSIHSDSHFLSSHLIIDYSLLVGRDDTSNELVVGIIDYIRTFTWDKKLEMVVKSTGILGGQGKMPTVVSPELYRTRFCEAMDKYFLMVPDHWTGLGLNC
# assayExplanation: PIKfyve EEA1 Assay (endosomal vesicle enlargement, high content imaging in U2OS cells)
# Type: cell-based
# conditionParameters: 3 hours of treatment, activity relative to maximal APY0201 activity
Each entry below carries its recorded IC50.

Sample records with IC50:
In: Consider the molecule `CN(C)C(=O)c1c(Nc2ccncc2)nc(N2CCOCC2)nc1-c1cccc(-n2cccn2)c1` and give its measured IC50.
Out: 0.1 to 1 µM

In: Consider the molecule `COc1c(N2CCOCC2)nc(-c2cccc(-n3cccn3)c2)nc1N1CCN(C)C(=O)C1` and give its measured IC50.
Out: 1 to 10 µM

In: Consider the molecule `COc1c(-c2cccc(-n3cccn3)c2)nc(N2CCN(C)C(=O)C2)nc1N1CCOCC1` and give its measured IC50.
Out: 1 to 10 µM

In: Consider the molecule `COc1ccc(-c2nc(N3CCOCC3)nc(Nc3ccncc3)c2OC)nc1OC` and give its measured IC50.
Out: 0.1 to 1 µM

In: Consider the molecule `Cn1ccc(-c2ccc3c(c2)c2nc(N4CCOCC4)nc(Nc4ccncc4)c2c(=O)n3C)n1` and give its measured IC50.
Out: 0.1 to 1 µM

In: Consider the molecule `COc1c(Nc2ccncc2)nc(N2CCOCC2)nc1-c1cncc(-c2cccnn2)c1` and give its measured IC50.
Out: 0.1 to 1 µM

New cases:
In: Consider the molecule `COc1c(Nc2ccncc2)nc(N2CCOCC2)nc1-c1cccc(N2CCC(O)CC2)c1` and give its measured IC50.
Out: 0.1 to 1 µM

In: Consider the molecule `Cn1ccc(-c2cccc(-c3nc(N4CCOCC4)nc(Nc4ccncc4)c3C(=O)N3CCC3)c2)n1` and give its measured IC50.
Out: 0.01 to 0.1 µM
